The measured values listed here are drawn from patent US20240392002A1.

- testSystem: T1, extracellular domain of human ROR2 (human, UniProt Q01974 34-403)
- T1 construct: bought protein; biotinylated in the bivalent assay format; also called Acro Cat. No. RO2-H52E5
- T1 sequence (Q01974 34-403 limits assumed): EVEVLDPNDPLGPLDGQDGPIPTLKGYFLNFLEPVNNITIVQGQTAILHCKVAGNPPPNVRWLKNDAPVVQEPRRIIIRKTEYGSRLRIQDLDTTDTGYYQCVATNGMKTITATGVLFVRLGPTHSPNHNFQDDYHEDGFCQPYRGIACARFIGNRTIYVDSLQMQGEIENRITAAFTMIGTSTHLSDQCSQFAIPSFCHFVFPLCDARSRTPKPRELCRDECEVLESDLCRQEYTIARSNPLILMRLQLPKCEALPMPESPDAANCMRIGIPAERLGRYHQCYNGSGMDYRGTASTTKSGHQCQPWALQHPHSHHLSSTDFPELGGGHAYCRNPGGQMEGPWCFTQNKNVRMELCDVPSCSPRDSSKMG
- methodNotes: BLI, IgG1 on biosensor, soluble ROR ectodomain
readoutName: binding result

INSERT INTO measurements (binder, readoutname, measured) VALUES
  ('I2C-8 IgG1 (antibody, V domains shown, human IgG1; same CDRs as I2A-16; also called 12C-8) VH: EVQLVESGGGLVQPGGSLRLSCAASGFTFSGYFIHWVRQAPGKGLEWVAAIFPYRGGTSYADSVKGRFTISADTSKNTAYLQMNSLRAEDTAVYYCARGGVSPGGFDYWGQGTLVTVSS VL: DIQMTQSPSSLSASVGDRVTITCRASQSVSSAVAWYQQKPGKAPKLLIYSASSLYSGVPSRFSGSRSGTDFTLTISSLQPEDFATYYCQQYYLYPGTFGQGTKVEIK', 'binding result', 'binds'),
  ('I2A-1 IgG1 (antibody, V domains shown, human IgG1) VH: EVQLVESGGGLVQPGGSLRLSCAASGFTFSSYFIHWVRQAPGKGLEWVAAIYPEGGYTYYADSVKGRFTISADTSKNTAYLQMNSLRAEDTAVYYCARDYKYVGALDYWGQGTLVTVSS VL: DIQMTQSPSSLSASVGDRVTITCRASQSVSSAVAWYQQKPGKAPKLLIYSASSLYSGVPSRFSGSRSGTDFTLTISSLQPEDFATYYCQQYYYFPGTFGQGTKVEIK', 'binding result', 'binds');
